All values here come from patent US20090298708A1.

- system.under.test: 9° Nm™ DNA polymerase (9N) (Thermococcus sp., UniProt Q56366, E143D)
- Construct: purchased New England Biolabs; host or cells: E. coli
- assay.name: Primer extension assay with 9°Nm DNA polymerase
- Assay type: biochemical, Thermococcus species (strain 9° N-7)
- condition.summary: 55° C., DNA template PF22 (T/U triphosphates) or PF24 (C triphosphates), three contiguous units

[
  {
    "molecule": "Nc1ccn([C@@H]2O[C@H](COP(=O)(O)OP(=O)(O)OP(=O)(O)O)[C@@H](O)[C@@H]2F)c(=O)n1",
    "Order of efficiency of incorporation": "dCTP~2′F-araCTP~2′F-rCTP"
  },
  {
    "molecule": "Nc1ccn([C@@H]2O[C@H](COP(=O)(O)OP(=O)(O)OP(=O)(O)O)[C@@H](O)[C@H]2F)c(=O)n1 [2′F-rCTP, reference compound]",
    "Order of efficiency of incorporation": "dCTP~2′F-araCTP~2′F-rCTP"
  },
  {
    "molecule": "Nc1ccn([C@H]2C[C@H](O)[C@@H](COP(=O)(O)OP(=O)(O)OP(=O)(O)O)O2)c(=O)n1",
    "Order of efficiency of incorporation": "dCTP~2′F-araCTP~2′F-rCTP"
  }
]

* * *

Collected % Apparent Fidelity, dNTP values appear next to each entry.
- system.under.test: 9N DNA polymerase (Thermococcus sp., UniProt Q56366, E143D)
- Construct: purchased New England Biolabs; host or cells: E. coli
- assay.name: Dropout assay, fidelity of incorporation by 9N
- Type: biochemical, Thermococcus species (strain 9° N-7)
- condition.summary: 30 min reaction time, 25 μM triphosphates, 55° C., template A: PF41, G: PF43, T: PF21, C: PF23
Provide the reading as a plain figure in %.

[
  {
    "molecule": "Cc1cn([C@H]2C[C@H](O)[C@@H](COP(=O)(O)OP(=O)(O)OP(=O)(O)O)O2)c(=O)[nH]c1=O [dTTP, reference compound]",
    "reading.unit": "%",
    "assay.value": 32
  }
]

Enquiry: Returns the measured % Apparent Fidelity, dNTP for the input molecule. Input: Nc1ccn([C@H]2C[C@H](O)[C@@H](COP(=O)(O)OP(=O)(O)OP(=O)(O)O)O2)c(=O)n1 [dCTP]
Return: 82

Enquiry: Returns the measured % Apparent Fidelity, dNTP for the input molecule. Input: Nc1ncnc2c1ncn2[C@H]1C[C@H](O)[C@@H](COP(=O)(O)OP(=O)(O)OP(=O)(O)O)O1 [dATP]
Return: 80

Enquiry: Returns the measured % Apparent Fidelity, dNTP for the input molecule. Input: Nc1nc2c(ncn2[C@H]2C[C@H](O)[C@@H](COP(=O)(O)OP(=O)(O)OP(=O)(O)O)O2)c(=O)[nH]1 [dGTP]
Return: 84

* * *

- system.under.test: DV DNA polymerase (Pyrococcus sp., UniProt Q51334, D141A/DEL493-1029/E143A)
- Construct: purchased New England Biolabs; host or cells: E. coli
- assay.name: Dropout assay, fidelity of incorporation by DV
- Format: biochemical, Pyrococcus species GB-D
- condition.summary: 30 min reaction time, 25 μM triphosphates, 55° C., template A: PF41, G: PF43, T: PF21, C: PF23
Collected % Apparent Fidelity, dNTP values appear next to each entry.
Provide the reading as a plain figure in %.

Guide cases for % Apparent Fidelity, dNTP, answers given:
[
  {
    "molecule": "Nc1nc2c(ncn2[C@H]2C[C@H](O)[C@@H](COP(=O)(O)OP(=O)(O)OP(=O)(O)O)O2)c(=O)[nH]1 [dGTP]",
    "assay.value": 62
  },
  {
    "molecule": "Nc1ncnc2c1ncn2[C@H]1C[C@H](O)[C@@H](COP(=O)(O)OP(=O)(O)OP(=O)(O)O)O1 [dATP]",
    "assay.value": 1
  },
  {
    "molecule": "Nc1ccn([C@H]2C[C@H](O)[C@@H](COP(=O)(O)OP(=O)(O)OP(=O)(O)O)O2)c(=O)n1 [dCTP]",
    "assay.value": 3
  }
]

Enquiry: What reported % Apparent Fidelity, dNTP corresponds to Cc1cn([C@H]2C[C@H](O)[C@@H](COP(=O)(O)OP(=O)(O)OP(=O)(O)O)O2)c(=O)[nH]c1=O [dTTP, reference compound] on DV DNA polymerase (Pyrococcus sp., UniProt Q51334, D141A/DEL493-1029/E143A)?
Return: 19
